- TARGET OR SYSTEM: Platelet-activating factor acetylhydrolase (Homo sapiens) (UniProt Q13093)
- Sequence (Q13093 whole entry, looked up): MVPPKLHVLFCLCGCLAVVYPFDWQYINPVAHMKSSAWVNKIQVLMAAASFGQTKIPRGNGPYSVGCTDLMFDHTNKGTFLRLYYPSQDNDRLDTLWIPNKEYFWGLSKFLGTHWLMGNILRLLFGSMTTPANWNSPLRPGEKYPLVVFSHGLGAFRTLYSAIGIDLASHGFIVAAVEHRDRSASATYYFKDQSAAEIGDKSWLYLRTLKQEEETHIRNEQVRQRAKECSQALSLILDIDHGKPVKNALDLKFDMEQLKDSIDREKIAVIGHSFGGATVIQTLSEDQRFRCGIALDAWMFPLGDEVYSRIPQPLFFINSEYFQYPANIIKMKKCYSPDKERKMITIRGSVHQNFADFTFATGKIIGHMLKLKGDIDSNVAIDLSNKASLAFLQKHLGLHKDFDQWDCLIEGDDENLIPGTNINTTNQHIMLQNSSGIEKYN
- PROTOCOL SUMMARY: pPAFAH enzyme inhibitors, primary screen, biochemical, fluorescence polarization, human (AID 463082);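 also: inhibitors block binding of the rhodamine activity-based probe so polarization drops; 0% = enzyme with DMSO and 100% = wells lacking pPAFAH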
- MEASUREMENT CONDITIONS: recombinant pPAFAH, FP-rhodamine probe fluorescence polarization; at 3.39 µM
The whole screen tested about 330,000 compounds, of which about 4,900 (1.5%) were called active.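 The calls were made as follows: active = inhibition above the mean inhibition across the screen plus 3 SD (cut at about 25% in these data); inactive = the rest.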 The full list was thinned out, with actives kept by preference.
The categories you may choose from are 1 (yes) = active, 0 (no) = inactive

Outcome logged for COc1ccccc1C(=O)Nc1ccnn1C1CCN(C(=O)C(C)(C)C)CC1 in this assay:
0 (no)

Outcome logged for CCN(CC(=O)Nc1ccc(OC)cc1)C(=O)c1ccc(=O)n(Cc2ccccc2)n1 in this assay:
0 (no)

Outcome logged for CCN(C(=O)c1cc([N+](=O)[O-])ccc1NCc1cccnc1)c1ccccc1 in this assay:
0 (no)

Outcome logged for CC(C)(C)NC(=O)NC(=O)COC(=O)CCC1CCCCC1 in this assay:
1 (yes)

Outcome logged for COc1ccccc1NC(=O)CCSc1nnc(-c2ccc(O)cc2)o1 in this assay:
0 (no)

Outcome logged for Cn1c(=O)c2c(nc(N3CCCCCC3)n2CC(O)COc2ccc(Cl)cc2)n(C)c1=O (stereo not given) in this assay:
0 (no)

Outcome logged for Nc1nonc1-n1nnc(C(=O)N/N=C/c2ccc(Cl)cc2)c1-c1ccc2c(c1)OCO2 in this assay:
0 (no)

Outcome logged for CC(=O)c1c(C)[nH]c(C(=O)COC(=O)c2cccc(S(=O)(=O)N(C)c3ccccc3)c2)c1C in this assay:
0 (no)

Outcome logged for Cc1cc(NC(=O)CSc2nnc(-c3ccco3)n2N)no1 in this assay:
0 (no)

Outcome logged for CCCCOc1ccc(N(CC(=O)NC(C)C)C(=O)CCC(=O)Nc2ccccn2)cc1 in this assay:
1 (yes)

Outcome logged for COC(=O)c1onc(-c2c(OC)cc(OC)cc2OC)c1C(=O)OC in this assay:
0 (no)

Outcome logged for COc1ccc(-n2cc(-c3ccccc3)c3c(=S)nc[nH]c32)cc1 in this assay:
0 (no)

Outcome logged for O=C(Nc1ccccc1)c1ccc2nsnc2c1 in this assay:
0 (no)

Outcome logged for C=CCOc1ccc(/C=C/C(=O)OCC(=O)NC2CCCCCC2)cc1 in this assay:
0 (no)

Outcome logged for Cc1cc(SCc2c(F)cccc2Cl)nc(=O)[nH]1 in this assay:
0 (no)

Outcome logged for CCC(=O)Nc1nnc(S(=O)(=O)N(CC(C)C)c2ccccc2)s1 in this assay:
0 (no)

Outcome logged for O=c1nc2s/c(=C\c3ccco3)c(=O)n2nc1Cc1ccccc1 in this assay:
1 (yes)

Outcome logged for Cc1cnc(C)c(N2CCN(C(=O)C3CCC(=O)N(CCc4cccc(F)c4)C3)CC2)n1 (stereo not given) in this assay:
0 (no)

Outcome logged for O=C(CN1CCN(c2cccc(Cl)c2)CC1)Nc1ccc(S(=O)(=O)N2CCOCC2)cc1 in this assay:
0 (no)

Outcome logged for Cc1sc2nc(CSCC(=O)NC3CCCCC3)[nH]c(=O)c2c1C in this assay:
0 (no)

* * *

- TARGET OR SYSTEM: Platelet-activating factor acetylhydrolase (Homo sapiens) (UniProt Q13093)
- PROTOCOL SUMMARY: pPAFAH enzyme inhibitors, primary screen, biochemical, fluorescence polarization, human (AID 463082);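 also: inhibitors block binding of the rhodamine activity-based probe so polarization drops; 0% = enzyme with DMSO and 100% = wells lacking pPAFAH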
- MEASUREMENT CONDITIONS: recombinant pPAFAH, FP-rhodamine probe fluorescence polarization; at 3.39 µM
Out of some 330,000 compounds screened, about 4,900 (1.5%) were called active.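 How the source made its calls: active means inhibition above the mean inhibition across the screen plus 3 SD (cut at about 25% in these data); inactive means the rest.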 Many of the other results were omitted from the sample, so actives are more common in it than they were.
The categories you may choose from are True = active, False = inactive

molecule=CC(=O)Nc1cccc(C(=O)OCC(=O)Nc2nnc(-c3ccccc3)o2)c1 assigned_class=False
molecule=CCN(CC)S(=O)(=O)c1ccc2[nH]cc(C(=O)NCCc3ccccc3)c(=O)c2c1 assigned_class=False

Outcome logged for CCN1C(=O)[C@@H]2[C@@H](c3ccc(-c4ccc(OC)cc4)c(OC)c3)N3CCC[C@@]3(C(=O)OC)[C@@H]2C1=O in this assay:
False

Outcome logged for N#CC1=C(N)Oc2c(ccc3cccnc23)C1c1ccncc1 (stereo unspecified) in this assay:
False

Outcome logged for CCn1c(N)c(Br)c(=O)[nH]c1=O in this assay:
False
